# Read-out: Macrophage colony-stimulating factor (MCSF), CSF1 (gene 1435)
# Experiment: BSK_hDFCGF_MCSF: BioMAP Diversity Plus: hDFCGF Assay for Macrophage colony-stimulating factor (MCSF) Biomarker Activity (AID 2283060)
# Protocol conditions: primary human foreskin fibroblasts; actives raise or lower the signal
Activity calls are given as the source filed them. Rule for the calls: active = hit-call score of the fitted dose curve at least 0.9, where 1 is the maximum; inactive = score below 0.9.
Recorded endpoint: AC50

compound=CCN(CC)C(=O)C(Cl)=C(C)OP(=O)(OC)OC reported_measurement=inactive
compound=NC(=O)CCl reported_measurement=inactive
compound=CCCCOC(=O)COC(=O)c1ccccc1C(=O)OCCCC reported_measurement=inactive
compound="CCOC(=O)C(SP(=S)(OC)OC)c1ccccc1 (centres undefined)" reported_measurement="7.09 µM (active)"
compound=CN(C)C(=S)S reported_measurement="14.2 µM (active)"

// for each compound below, give its AC50
1. CCOP(=O)(OCC)OC(=CCl)c1ccc(Cl)cc1Cl
2. CC(C)N(C(=O)CCl)c1ccccc1
3. c1ccc(-c2cccc(-c3ccccc3)c2)cc1
4. CCOC(=O)CC(=O)CCl
5. Nc1ccc(N)cc1
6. Cc1cc(C)cc(C)c1

31 µM (active)
6.59 µM (active)
20 µM (active)
20 µM (active)
inactive
inactive

// for each compound below, give its AC50
1. OCCN(CCO)CCO
2. O=S(=O)(c1ccc(Cl)cc1)c1cc(Cl)c(Cl)cc1Cl

1: inactive; 2: inactive

So what's the measured AC50 for this one? C[C@]12CC[C@@H](O)C[C@@H]1CC[C@@H]1[C@@H]2CC[C@]2(C)C(=O)CC[C@@H]12
inactive
